# applied-conditions: in MTBE, 278.15 K
observable: solubility (mole fraction)
Format: numeric value only, no unit, no commentary.

Q: Could you tell me which solubility (mole fraction) is on file for "CC(=O)O[C@]1(C(C)=O)CC[C@H]2[C@@H]3C=C(Cl)C4=CC(=O)[C@@H]5C[C@@H]5[C@]4(C)[C@H]3CC[C@@]21C" ?
Result: 0.000675

====

# applied-conditions: in methanol, 293.15 K
observable: solubility (mole fraction)
A bare number is all that is needed in reply.

Q: Query (compound): "CC(=O)O[C@]1(C(C)=O)CC[C@H]2[C@@H]3C=C(Cl)C4=CC(=O)[C@@H]5C[C@@H]5[C@]4(C)[C@H]3CC[C@@]21C" ; field requested: solubility (mole fraction)
Result: 0.00023

====

# applied-conditions: in methanol, 288.15 K
observable: solubility (mole fraction)

Q: Need solubility (mole fraction) of "CC(=O)O[C@]1(C(C)=O)CC[C@H]2[C@@H]3C=C(Cl)C4=CC(=O)[C@@H]5C[C@@H]5[C@]4(C)[C@H]3CC[C@@]21C" , thanks.
Result: 0.00023

====

# applied-conditions: in water, 308.15 K
observable: solubility (mole fraction)
Write the value as a bare number.

Q: Look up solubility (mole fraction) for this compound: "CC(=O)O[C@]1(C(C)=O)CC[C@H]2[C@@H]3C=C(Cl)C4=CC(=O)[C@@H]5C[C@@H]5[C@]4(C)[C@H]3CC[C@@]21C"
Result: 4.88e-06

====

# applied-conditions: in methanol, 278.15 K
observable: solubility (mole fraction)
Give the figure by itself; no unit, no explanation.

Q: Look up solubility (mole fraction) for this molecule: "CC(=O)O[C@]1(C(C)=O)CC[C@H]2[C@@H]3C=C(Cl)C4=CC(=O)[C@@H]5C[C@@H]5[C@]4(C)[C@H]3CC[C@@]21C"
Result: 0.000229

====

# applied-conditions: in methanol, 313.15 K
observable: solubility (mole fraction)
Just the number, please, no unit after it.

Q: Which solubility (mole fraction) is listed for "CC(=O)O[C@]1(C(C)=O)CC[C@H]2[C@@H]3C=C(Cl)C4=CC(=O)[C@@H]5C[C@@H]5[C@]4(C)[C@H]3CC[C@@]21C" ?
Result: 0.00023

====

# applied-conditions: in MTBE, 283.15 K
observable: solubility (mole fraction)
A bare number is all that is needed in reply.

Q: # get_value(readout='solubility (mole fraction)', item= "CC(=O)O[C@]1(C(C)=O)CC[C@H]2[C@@H]3C=C(Cl)C4=CC(=O)[C@@H]5C[C@@H]5[C@]4(C)[C@H]3CC[C@@]21C" )
Result: 0.000676

====

# applied-conditions: in water, 303.15 K
observable: solubility (mole fraction)
Give the figure by itself; no unit, no explanation.

Q: What value of solubility (mole fraction) has been recorded for this entry: "CC(=O)O[C@]1(C(C)=O)CC[C@H]2[C@@H]3C=C(Cl)C4=CC(=O)[C@@H]5C[C@@H]5[C@]4(C)[C@H]3CC[C@@]21C"
Result: 3.67e-06

====

# applied-conditions: in MTBE, 293.15 K
observable: solubility (mole fraction)
Just the number, please, no unit attached.

Q: Fill in the blank: the reported solubility (mole fraction) of "CC(=O)O[C@]1(C(C)=O)CC[C@H]2[C@@H]3C=C(Cl)C4=CC(=O)[C@@H]5C[C@@H]5[C@]4(C)[C@H]3CC[C@@]21C" is ____.
Result: 0.000677
